- assay_protocol: Oral bioavailability in C57BL/6 mouse at 10 mg/kg administered via oral gavage and measured for 24 hrs by LC-MS/MS analysis
- Format: ADME, organism-based
- condition_info: C57BL/6, mouse, in vivo
# bioavailability annotations

Examples with answers:
# chemical_smiles, bioavailability
data = [
    ("CC(C)c1nc(-c2cnc(N)c(OC(F)(F)F)c2)cn1C12CC(N3CCOCC3)(C1)C2", "> 100%"),
    ("Nc1ncc(-c2cn(C34CC(F)(C3)C4)c([C@@H](O)C(F)(F)F)n2)cc1OC(F)(F)F", "> 100%"),
]

Next up:
*Q* Can you share its bioavailability? I mean this compound: "Nc1ncc(-c2cn(C34CC(N5CCOCC5)(C3)C4)c(C3CC3)n2)cc1OC(F)(F)F"
*A* > 100%
